Experiment: qHTS Assay for Agonists of the Thyroid Stimulating Hormone Receptor: Activators of Intracellular cAMP Concentrations in Parental HEK 293; also: nearly all actives have a fitted effect of over 55% in size
Conditions: parental HEK293 CNG cAMP sensor, membrane potential fluorescence; series mostly up to 57.1 µM
In all, about 73,000 compounds went through this assay and about 1,800 (2.5%) were called active. Another 13% or so got no clear call; they are omitted. Calls follow the shape of the dose curve; as a rule, active = well fitted activation curve with a large enough effect; inconclusive = small, poorly fitted or top-dose-only effect; inactive = no such curve, though single readings can be large or run the other way. The sample holds actives, similar compounds and a random draw of the others, so the mix is not that of the screen.
Outcome codes: active, inactive

Compound | Group label
Cc1cccc2cc(CN(Cc3ccc4c(c3)OCO4)Cc3nnnn3C3CCCC3)c(=O)[nH]c12 | active
Cc1nc(C)c(C(=O)Nc2cccc(C)c2C)o1 | inactive
Cc1cccc(CC(=O)Nc2c3c(nn2-c2cccc(Cl)c2)CS(=O)C3)c1 (configuration not stated) | active
O=C(NCc1ccccc1)[C@H]1C[C@@H]1[C@H](NP(=O)(c1ccccc1)c1ccccc1)c1ccccc1 | inactive
Cc1cc(C)cc(OCc2nnc(SCC(=O)Nc3ccccc3)o2)c1 | inactive
CCCc1nc2ccccc2c(=O)n1NC(=O)c1c(O)c2ccccc2[nH]c1=O | inactive
CCC(c1nnnn1C1CCCC1)N(Cc1cccs1)Cc1cc2cccc(C)c2[nH]c1=O (configuration not stated) | inactive
CCCOc1ccccc1C1CC(=O)Nc2cc3c(cc21)OCO3 (configuration not stated) | active
Nc1nonc1-c1nc2ccccc2n1CCC(=O)O | inactive
Cc1cccc(C2c3c(n(C)c(=O)n(C)c3=O)N=C3c4ccccc4C(=O)C32)c1 (configuration not stated) | inactive
CN(C)c1ccc(NC(=O)c2ccncc2)c2ccccc12 | inactive
COC(=O)c1ccccc1NC(=O)Cn1nc(C(F)(F)F)c2c1CCC2 | active
O=C(Cn1nc(C(F)(F)F)c2c1CCC2)NCc1ccc(F)cc1 | inactive
CCN(CC)CCCCn1c(-c2ccccc2)nc2c(N3CCOCC3)nc(C)nc21 | inactive
COc1ccc2[nH]c(=O)c(CN(Cc3nnnn3CCc3ccccc3)CC3CCCO3)cc2c1 (configuration not stated) | inactive
COc1ccc(C)c(Cn2c(-c3nonc3N)nc3ccccc32)c1 | active
CC(C)(C)NC(=O)c1cc(NC(=O)c2ccco2)cc(NC(=O)c2ccco2)c1 | inactive
Nc1nonc1-c1nc2ccccc2n1Cc1ccc(F)cc1 | active
COCCOC(=O)C1=C(C)NC(=O)CC1c1cc2c(cc1Br)OCO2 (configuration not stated) | inactive
CCOc1ccc2nc(NCCNS(=O)(=O)c3ccccc3)c(C#N)cc2c1 | inactive
COCCn1c(SCC(=O)Nc2cc(Cl)ccc2OC)nc2c(c1=O)SC(C)C2 (configuration not stated) | inactive
Cc1ccc(C(=O)Nc2nnc(-c3ccncc3)s2)o1 | inactive
c1ccc(Oc2ccccc2)cc1 | inactive
COc1ccc(CC(=O)Nc2c3c(nn2-c2cccc(Cl)c2)CS(=O)C3)cc1 (configuration not stated) | inactive
COc1cc2c(cc1OC)C(c1ccc(C)o1)CC(=O)N2 (configuration not stated) | inactive
COCCNc1cc(-c2c(C)noc2C)ncn1 | inactive
CC(=O)Nc1nonc1-c1nc2ccccc2n1Cc1ccccn1 | inactive
CCOC(=O)C1CCN(C(c2cc3cc(C)cc(C)c3[nH]c2=O)c2nnnn2C2CCCCC2)CC1 (configuration not stated) | inactive
Cc1cccc(OCc2nnc(SCn3nnc4ccccc4c3=O)o2)c1 | active
Cc1cccc(OCc2nnc(SCc3nc4cc(C(F)(F)F)ccc4c(=O)[nH]3)o2)c1 | inactive
CC(C)n1c(SCC(=O)Nc2ccccc2N2CCCCC2)nc2c1c(=O)n(C)c(=O)n2C | active
COc1ccc(-c2c3c(=O)n(C)c(=O)n(C)c3cn2NC(C)=O)cc1 | inactive
CC(=O)Nc1ccc(N2CCOCC2)c(C(=O)Nc2cccc(C)c2)c1 | inactive
Cc1nc2cnc(N3CCN(C)CC3)nc2n(C[C@H]2CCCO2)c1=O | inactive
COCCn1c(-c2ccc(OC)c(OC)c2)nc2ccccc21 | inactive
CC(C)[C@H](NC(=O)Nc1ccc(S(N)(=O)=O)cc1)C(=O)O | inactive
CCOC(=O)C1CCCN(C(=O)C2CCN(c3nnc(-n4cccc4)s3)CC2)C1 (configuration not stated) | inactive
